- assayed system: Dual specificity mitogen-activated protein kinase kinase 1 (Homo sapiens, UniProt Q02750)
- Sequence (Q02750 whole entry): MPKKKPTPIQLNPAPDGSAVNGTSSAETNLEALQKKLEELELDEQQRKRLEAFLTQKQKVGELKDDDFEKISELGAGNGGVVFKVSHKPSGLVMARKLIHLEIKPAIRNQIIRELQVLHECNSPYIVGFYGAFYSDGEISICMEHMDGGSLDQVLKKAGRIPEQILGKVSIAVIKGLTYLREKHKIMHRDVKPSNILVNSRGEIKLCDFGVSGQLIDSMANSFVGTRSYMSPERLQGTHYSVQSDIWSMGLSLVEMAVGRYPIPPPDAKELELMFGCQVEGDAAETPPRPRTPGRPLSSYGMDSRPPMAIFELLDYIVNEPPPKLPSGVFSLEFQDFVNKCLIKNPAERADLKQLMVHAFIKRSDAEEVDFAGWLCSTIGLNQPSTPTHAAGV
property measured: IC50
In your response, put the unit directly after the numeric value.

Short answer for `O=C(O)c1ccc(F)c(F)c1Nc1ccc(I)cc1Cl` : IC50 was 5.73 nM

====

- System: Human alphaherpesvirus 1
- assay overview: Antiviral activity against HSV-1 infected in African green monkey Vero cells assessed as inhibition of viral replication
- Assay type: functional, organism-based
- condition details: Human alphaherpesvirus 1, Vero
property measured: pEC50
In plain terms, pEC50 is the concentration in mol/L turned into minus its base-10 logarithm.

The recorded pEC50 for `Fc1ccc(N2CCCCC2)c(NC(=S)c2ccncc2)c1` is 6.16
